- SYSTEM_UNDER_TEST: human ether-à-go-go-related gene (hERG) potassium channel (human);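 also: peak tail current of the secondary pulse compared with the same well before compound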
- PROTOCOL_NOTES: primary screen, population patch clamp on CHO cells stably expressing hERG; higher = less effect of the substance
In all, about 310,000 compounds went through this assay and about 14,000 (4.5%) showed an effect of 50% or more. Effects have a minus sign here. Many of the other results were omitted from the sample, so strong results are more common in it than they were.
I would appreciate it if you labelled entries Criterion met when hERG current change (%, negative = inhibition) at 10uM is -40% or higher, otherwise Criterion not met.

1. Cn1c(Cc2csc(N)n2)nnc1SCC(=O)NCc1ccccc1; Criterion met
2. Cc1ccc2[nH]c(O)c(N=NC(=O)CCc3ccccc3)c2c1Br; Criterion met
3. CC(Sc1ccc(Cl)cc1)C(=O)Nc1ccc(S(=O)(=O)N2CCOCC2)cc1 (stereo not shown); Criterion met
4. CCOC(=O)C1(CCOc2ccccc2)CCN(Cc2ccc(F)c(OC)c2)CC1; Criterion met
5. Cc1ccc2[nH]c(O)c(N=NC(=O)C3CC3c3ccccc3)c2c1Br (stereo not shown); Criterion not met
6. COC(=O)c1sccc1-n1cccc1C(=O)C(=O)N1CCCC1; Criterion met
7. COC(=O)c1sccc1-n1cccc1C(=O)C(=O)N1CCOCC1; Criterion not met
8. COC(=O)c1sccc1-n1cccc1C(=O)N1CCOCC1; Criterion not met
9. CC(Sc1ccc(S(=O)(=O)N2CCOCC2)cn1)C(=O)Nc1ccc(Cl)cc1Cl (stereo not shown); Criterion not met
10. O=C1CCN(Cc2ccc(O)cc2)CCN1[C@H](CO)Cc1ccccc1; Criterion met

* * *

- SYSTEM_UNDER_TEST: human ether-à-go-go-related gene (hERG) potassium channel (human);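 also: peak tail current of the secondary pulse compared with the same well before compound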
- PROTOCOL_NOTES: primary screen, population patch clamp on CHO cells stably expressing hERG; higher = less effect of the substance
In all, about 310,000 compounds went through this assay and about 14,000 (4.5%) showed an effect of 50% or more. Effects have a minus sign here. The sample as a whole holds a higher share of strong results than the screen did.
Items are presented alongside their recorded hERG current change (%, negative = inhibition) at 10uM.
METRIC: hERG current change (%, negative = inhibition) at 10uM (%)

1. O=C(C[n+]1ccccc1)N/N=C/c1ccccc1[N+](=O)[O-].[Cl-]; 40.2
2. O=C(CSc1nc(=O)n(CCCN2CCOCC2)c2c1CCCC2)Nc1ccccc1Cl; -42.9
3. COc1ccc(NC(=S)N(Cc2cccnc2)Cc2ccco2)cc1; -24.5
4. COc1ccc(NC2CC(=O)NC2=O)cc1 (centres unmarked); 5.24
5. CC(=O)Nc1ccc(N2CCCC2)cc1; 6.33
6. COc1cc(O)c(NC(C)=O)c2nonc12; 11.2
7. CCN(CC)CCn1c2c(c(SCC(=O)Nc3ccccc3Cl)nc1=O)CCCC2; -55.6
8. CC1Oc2ccccc2N(CC(=O)NCc2ccccc2)C1=O (centres unmarked); 6.53
9. CCN(CC)CC(=O)N1c2ccccc2Sc2ccc(Cl)cc21.Cl; -10.3
10. CCN(CC)CCn1c2c(c(SCC(=O)NCc3ccccc3)nc1=O)CCC2; -38.7
11. COc1ccccc1NC(=O)CSc1nc(=O)n(CCN(C)C)c2c1CCCC2; -40.4

* * *

Recorded hERG current change (%, negative = inhibition) at 10uM for the following compounds
- SYSTEM_UNDER_TEST: human ether-à-go-go-related gene (hERG) potassium channel (human, UniProt Q12809);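 also: peak tail current of the secondary pulse compared with the same well before compound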
- Sequence (Q12809 whole entry, looked up): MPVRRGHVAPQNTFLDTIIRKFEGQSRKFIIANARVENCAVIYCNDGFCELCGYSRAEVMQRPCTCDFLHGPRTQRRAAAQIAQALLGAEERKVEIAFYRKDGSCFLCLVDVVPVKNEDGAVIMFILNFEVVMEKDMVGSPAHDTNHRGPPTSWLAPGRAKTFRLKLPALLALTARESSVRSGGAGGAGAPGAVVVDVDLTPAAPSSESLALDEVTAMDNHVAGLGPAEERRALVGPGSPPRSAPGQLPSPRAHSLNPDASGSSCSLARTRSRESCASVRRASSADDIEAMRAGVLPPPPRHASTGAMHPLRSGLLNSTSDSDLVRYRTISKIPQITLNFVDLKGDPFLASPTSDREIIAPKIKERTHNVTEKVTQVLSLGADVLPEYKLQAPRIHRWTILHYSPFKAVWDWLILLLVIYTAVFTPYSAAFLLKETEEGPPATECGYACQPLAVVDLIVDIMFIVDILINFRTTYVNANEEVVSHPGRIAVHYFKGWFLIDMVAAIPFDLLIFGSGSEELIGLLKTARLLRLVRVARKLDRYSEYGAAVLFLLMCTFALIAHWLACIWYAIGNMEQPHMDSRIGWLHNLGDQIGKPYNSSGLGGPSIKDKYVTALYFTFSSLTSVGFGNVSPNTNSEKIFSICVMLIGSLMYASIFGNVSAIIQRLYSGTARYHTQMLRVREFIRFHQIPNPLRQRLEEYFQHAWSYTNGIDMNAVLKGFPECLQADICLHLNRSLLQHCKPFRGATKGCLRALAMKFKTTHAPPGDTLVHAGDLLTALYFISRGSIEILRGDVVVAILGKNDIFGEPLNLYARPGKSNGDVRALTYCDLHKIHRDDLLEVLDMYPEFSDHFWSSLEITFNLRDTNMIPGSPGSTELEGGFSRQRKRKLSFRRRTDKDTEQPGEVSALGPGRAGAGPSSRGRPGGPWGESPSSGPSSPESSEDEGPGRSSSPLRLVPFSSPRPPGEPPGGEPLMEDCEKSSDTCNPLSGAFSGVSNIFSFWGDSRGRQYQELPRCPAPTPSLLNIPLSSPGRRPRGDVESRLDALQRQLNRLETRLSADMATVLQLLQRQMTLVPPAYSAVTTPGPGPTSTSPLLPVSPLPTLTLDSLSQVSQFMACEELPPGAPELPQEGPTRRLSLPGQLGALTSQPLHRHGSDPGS
- PROTOCOL_NOTES: primary screen, population patch clamp on CHO cells stably expressing hERG; higher = less effect of the substance
About 14,000 (4.5%) of roughly 310,000 compounds showed an effect of 50% or more. Effects have a minus sign here. This is one part of a sample in which strong results are shown more often than they occur.
METRIC: hERG current change (%, negative = inhibition) at 10uM (%)

1) CN(C)CCCN(C(=O)c1ccc(S(=O)(=O)N2CCCCCC2)cc1)c1nc2c(F)cc(F)cc2s1.Cl; -69.6
2) CC1CN(c2nc3c(c(=O)n(Cc4ccc(Cl)c(Cl)c4)c(=O)n3C)n2C)CC(C)O1 (stereo not shown); -35.7
3) c1ccc(CN2CCOCCOCCOCC2)cc1; 15.6
4) O=C(CCC(=O)c1ccccc1)NCc1cccc(C(F)(F)F)c1; 4.89
5) O=C(NC(=S)Nc1ccc(CN2CCOCC2)cc1)c1ccc([N+](=O)[O-])cc1; -13
6) Nc1c2c(nc3ccccc13)CCC2.O=C(O)/C=C/C(=O)O; -18.2
7) CN(C)CCCN(C(=O)c1ccc(S(=O)(=O)N2CCCCCC2)cc1)c1nc2c(F)cccc2s1.Cl; -66.2
8) O=[N+]([O-])c1ccc(CN2CCOCCOCCOCC2)cc1; -59.1
9) O=C(CCCCCN1C(=O)c2cccc3cccc(c23)C1=O)NCCCO; -1.71
10) CN(C)CCCN(C(=O)c1ccc(S(=O)(=O)N2CCc3ccccc3C2)cc1)c1nc2c(F)cccc2s1.Cl; 4.85
11) Nc1c2c(nc3ccn(Cc4ccccc4)c(=O)c13)CCC2; -66
12) Cn1c(N2CCOCC2)nc2c1c(=O)n(Cc1ccc(Cl)cc1)c(=O)n2C; -54.5
13) CCN(Cc1ccccc1)S(=O)(=O)c1cc(C(=O)OC)n(C)c1; -32.9
14) CCOc1cccc2sc(N(CCN(CC)CC)C(=O)c3ccc(S(=O)(=O)N4CCCC4)cc3)nc12.Cl; -24.2
15) O=c1[nH]c(N2CCN(c3ccccc3)CC2)nc2c1CCCC2; 2.28
16) CN(C)CCCN(C(=O)c1ccc(S(=O)(=O)N2CCCC2)cc1)c1nc2c(F)cc(F)cc2s1.Cl; -44.3
17) Nc1c2c(nc3ccn(-c4ccccc4)c(=O)c13)CCCCC2; -58.8
18) O=[N+]([O-])c1ccc(CN2CCOCCOCCN(Cc3ccc([N+](=O)[O-])cc3)CCOCC2)cc1; -77.8
19) CN(C)CCCN(C(=O)c1ccc(S(=O)(=O)N2CCc3ccccc3C2)cc1)c1nc2c(F)cc(F)cc2s1.Cl; -15.2

* * *

- SYSTEM_UNDER_TEST: human ether-à-go-go-related gene (hERG) potassium channel (human);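 also: peak tail current of the secondary pulse compared with the same well before compound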
- PROTOCOL_NOTES: primary screen, population patch clamp on CHO cells stably expressing hERG; higher = less effect of the substance
Hit rate of the full screen: of about 310,000 compounds, about 14,000 (4.5%) showed an effect of 50% or more. The effect is printed as a negative number. The entries come from a sample that favours strong results as a whole.
The entries below come with measured hERG current change (%, negative = inhibition) at 10uM values attached.
METRIC: hERG current change (%, negative = inhibition) at 10uM (%)

1. Cc1c(C)c2ccc(OC(C)C(=O)NCCCn3ccnc3)c(C)c2oc1=O (stereo not shown); -6.05
2. Cc1cc(OC(C)C(=O)NCCCn2ccnc2)c2c(C)c(C)c(=O)oc2c1 (stereo not shown); -76.7
3. COc1ccc(NC(=O)N2CCC(n3nnc4cc(C)ccc43)CC2)cc1; -11.3
4. Cc1c(C)c2cc(Cl)c(OCC(=O)NCCCn3ccnc3)cc2oc1=O; -2.59
5. O=C(O)CCNC(=O)/C(=C/C=C/c1ccccc1)NC(=O)c1ccccc1; 16.6
6. CCCc1cc(=O)oc2cc(OCC(=O)NCCCn3ccnc3)ccc12; -47.1
7. Cc1cccc(NC(=O)N2CCC(n3nnc4cc(C)ccc43)CC2)c1; -62.9
8. CNC(=O)/C(=C\C=C\c1ccccc1)NC(=O)c1ccc([N+](=O)[O-])cc1; -77.6
9. NC(=O)CCn1c(C(=O)c2cccc([N+](=O)[O-])c2)c2ccccc2[n+]1[O-]; 4.25
10. CN1C[C@@H]2C(c3ccccc3)C3(c4ccccc4)CC2(C3)[C@H]1c1ccccc1 (stereo partly shown); -25.7
11. CCCCOc1ccc(C(=O)N/C(=C/C=C/c2ccccc2)C(=O)NC)cc1; -75.2
12. COc1ccc(C(=O)c2c3ccc([N+](=O)[O-])cc3[n+]([O-])n2CCC[NH3+])cc1.[Cl-]; -47.4
13. Cc1ccc(C(=O)c2c3ccc([N+](=O)[O-])cc3[n+]([O-])n2CCCC(N)=O)cc1; -36.6
14. Cc1cc(OC(C)C(=O)NCCCn2ccnc2)c2c(C)cc(=O)oc2c1 (stereo not shown); -15.4
15. CCOc1ccc(NC(=O)N2CCC(n3nnc4ccccc43)CC2)cc1; -15.4
16. CCOc1ccccc1C(=O)N1CCC(n2nnc3cc(C)ccc32)CC1; -47.4
17. CCN(CC)c1ccc(/C=N/NC(=O)c2cccc(S(=O)(=O)N3CCOCC3)c2)cc1; -24.4
18. NC(=O)CCCn1c(C(=O)c2cc(Cl)c(N)c(Cl)c2)c2ccc([N+](=O)[O-])cc2[n+]1[O-]; -30.9
19. CCCc1cc(=O)oc2cc(C)cc(OCC(=O)NCCN3CCOCC3)c12; 6.05
